Molecular target: QPCTL (Homo sapiens)
Sequence (Q9NXS2 whole entry): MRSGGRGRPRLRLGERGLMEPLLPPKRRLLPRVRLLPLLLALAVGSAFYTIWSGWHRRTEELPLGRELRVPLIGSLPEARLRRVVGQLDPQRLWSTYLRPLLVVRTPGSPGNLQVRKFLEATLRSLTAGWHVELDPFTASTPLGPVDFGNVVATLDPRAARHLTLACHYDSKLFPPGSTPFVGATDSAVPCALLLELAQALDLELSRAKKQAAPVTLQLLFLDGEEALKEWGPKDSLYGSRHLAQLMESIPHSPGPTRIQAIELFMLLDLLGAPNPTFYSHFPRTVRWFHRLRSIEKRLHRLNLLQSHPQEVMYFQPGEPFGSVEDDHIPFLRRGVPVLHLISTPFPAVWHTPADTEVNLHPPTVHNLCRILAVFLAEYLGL
Property measured: IC50 (nM)

(I) Cn1cnnc1C1(F)CCN(c2c(C#N)ccnc2-c2cccnc2)CC1
(II) CC(C)n1nc2ncc(-c3nc(C4CC4)cc(C#N)c3N3CCC(F)(c4nncn4C)CC3)cc2c1F
[Q] Form field 'greater IC50' accepts I or II ; which applies? Response format: the label of the selected entry.
[A] I
(I: 18 nM, II: 1 nM)

(A) Cn1cnnc1C1(F)CCN(c2c(C#N)cc(C(F)(F)F)nc2-c2cnc(F)cc2Cl)CC1
(B) Cn1cnnc1C1(F)CCN(c2c(C#N)cc(C3CC3)nc2-c2cnc3nn(C(C)(C)C)c(F)c3c2)CC1
[Q] Which entry shows the lesser value of IC50 here, A or B ? Response format: the label of the selected entry.
[A] B
(B: 1 nM, A: 10 nM)
